- TARGET UNDER TEST: Tumor necrosis factor receptor superfamily member 10B (Homo sapiens)
- PROCEDURE DETAILS: caspase-8 TRAIL sensitization, hit retest, confirmation, cell-based, NB7+caspase-8, with/without TRAIL, luminescence panel (AID 651596)
- PROTOCOL CONDITIONS: NB7 neuroblastoma + caspase-8, TRAIL sensitization, luminescence viability, with TRAIL, mean of runs, at 10 µM, stronger effect = higher value
# activity binned as low band = under 60%, middle band = from 60% up to 80%, high band = 80% and over

Returns: class label. Input: "CCCCCCCCOC(=O)c1cc([N+](=O)[O-])c(Sc2ncnc3nc[nH]c23)c([N+](=O)[O-])c1"
middle band

Returns: class label. Input: "O=C(/C=C\Nc1ccccn1)c1ccc(Cl)cc1"
middle band

Returns: class label. Input: CC1CCCN(c2ncnc3c2cnn3-c2ccccc2)C1 (centres undefined)
high band

Returns: class label. Input: "O=c1[nH]c(/C(=N\O)c2ccccc2)no1"
high band

Returns: class label. Input: "Cc1c(P(=S)(c2ccccc2)c2ccccc2)[n+]2ccccc2n1C/C=C/c1ccccc1"
high band

Returns: class label. Input: "Cc1ccc(OCC(=O)NC(=S)Nc2ccccn2)c(Br)c1"
high band

Returns: class label. Input: "Cc1ccnc(NC(=S)NC(=O)c2cccs2)c1"
high band

Returns: class label. Input: "Cc1cc(C(=O)Cn2nnc3ccccc3c2=O)c(C)n1Cc1cccs1"
middle band

Returns: class label. Input: "Cc1ccnc(NC(=O)c2ccc(Br)s2)c1"
low band

Returns: class label. Input: "Nc1nc(Nc2ccc(Cl)cc2)nc2ccccc12"
high band

Returns: class label. Input: "Cc1ccc(C(=O)N/C(=C\c2ccc(-c3ccccc3[N+](=O)[O-])o2)C(=O)NCCCN(C)C)cc1"
low band

Returns: class label. Input: "Cc1cccnc1Nc1nc(-c2ccccn2)cs1"
low band

Returns: class label. Input: "Cc1nc2cc(NC(=O)Nc3cccc(F)c3)ccc2n1C"
middle band

Returns: class label. Input: "C#CCSc1nnc(CSc2nc3ccccc3s2)n1-c1ccccc1"
high band

Returns: class label. Input: "Cc1ccc(-c2nn(-c3ccccc3)cc2NC(=O)CCl)cc1"
high band

Returns: class label. Input: "Cc1ccsc1/C=C/c1ccc2ccccc2n1"
low band

Returns: class label. Input: "CCN(CC(=O)N1CCc2ccccc2C1)S(=O)(=O)c1ccc2ccccc2c1"
low band

Returns: class label. Input: "CCCc1ccc(-c2cc(C(=O)N/N=C/c3ccc([N+](=O)[O-])o3)c3ccccc3n2)cc1"
high band

Returns: class label. Input: "Oc1ccc(-c2cn3ccccc3n2)cc1"
low band

Returns: class label. Input: "COC(=O)c1cccc(NC(=O)c2cc3ccccc3o2)c1"
low band

Returns: class label. Input: "FC(F)(F)c1nnc(-c2ccccc2)nc1Sc1ccc(Cl)cc1"
low band

Returns: class label. Input: "CCOC(=O)c1cnc(-n2nc(C)cc2C)nc1N(C)C"
low band

---

- TARGET UNDER TEST: Sentrin-specific protease 8 (Homo sapiens) (UniProt Q96LD8)
- Sequence (Q96LD8 whole entry, looked up): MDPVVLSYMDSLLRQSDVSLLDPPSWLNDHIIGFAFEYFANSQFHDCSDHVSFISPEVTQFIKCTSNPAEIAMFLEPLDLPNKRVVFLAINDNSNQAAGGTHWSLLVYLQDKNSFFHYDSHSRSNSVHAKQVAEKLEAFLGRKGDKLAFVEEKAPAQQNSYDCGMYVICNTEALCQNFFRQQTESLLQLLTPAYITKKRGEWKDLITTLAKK
- PROCEDURE DETAILS: SENP8 protease inhibitors, retest, confirmation, biochemical, luminescence, single concentration (AID 488912)
- PROTOCOL CONDITIONS: Recombinant SENP8, Z-RLRGG-aminoluciferin luminescence, 60 min; at 12.5 µM; stronger effect = higher value
This is one part of the list.
MEASURED METRIC: inhibition (%)
Provide the reading as a plain figure in %.

I'd like to know its inhibition. The compound in question is CC1=NN(C(N)=S)C(=O)C1N=Nc1cc(Cl)ccc1Cl (centres undefined)
-5.4

I'd like to know its inhibition. The compound in question is "O=C(Nc1ccccc1)Nc1ccccc1C(=O)NCc1ccco1"
2.7

I'd like to know its inhibition. The compound in question is "COCCN(CCOC)c1nc(N)c2c(N)nc3c(c2c1C#N)CC(=O)N3Cc1ccc(Cl)cc1"
-5.5

I'd like to know its inhibition. The compound in question is O=C(Nc1ccc(-c2nnc(-c3ccccc3)o2)cc1)C1CCCO1 (centres undefined)
28.8

I'd like to know its inhibition. The compound in question is "CCOC(=O)/C(C#N)=C/c1ccc(N2CCCCC2)cc1"
25.6

I'd like to know its inhibition. The compound in question is "COc1ccc(/C=N/Nc2ccccc2C(=O)O)cc1"
97.3

I'd like to know its inhibition. The compound in question is "c1csc(-c2nc(-c3ccncc3)no2)c1"
19.7

I'd like to know its inhibition. The compound in question is O=C(Nc1ccc(C2CC2(Cl)Cl)cc1)c1cccc([N+](=O)[O-])c1 (centres undefined)
57.6

I'd like to know its inhibition. The compound in question is "O=C(Nc1ccc(NC(=O)c2ccco2)c(Cl)c1)c1cccc([N+](=O)[O-])c1"
8.7

I'd like to know its inhibition. The compound in question is "C=CCn1c(C)cc(C2=NNC(=NCC)SC2)c1C"
-3.3

I'd like to know its inhibition. The compound in question is "O=c1oc2ccccc2cc1-c1cn(-c2ccccc2)c(=S)[nH]1"
39.3

I'd like to know its inhibition. The compound in question is "O=C(c1cnn2ccccc12)N1CCc2ccccc21"
36.7

I'd like to know its inhibition. The compound in question is "Cc1noc(C)c1/C=N/Nc1ccc2ccccc2n1"
-12.5

I'd like to know its inhibition. The compound in question is "CC(=O)c1sc(NC(=O)c2ccc(C)cc2)nc1C"
-24.9

I'd like to know its inhibition. The compound in question is "COc1cccc(C(=O)c2cc3ccc(O)cc3oc2=O)c1"
98.7

I'd like to know its inhibition. The compound in question is "Nc1ccc(-c2nnc(-c3ccc(-c4ccccc4)cc3)o2)cc1"
11.8

I'd like to know its inhibition. The compound in question is "Cc1ccc(OC(=O)c2cc3ccccc3o2)cc1"
50.7

I'd like to know its inhibition. The compound in question is "Cc1ccc(-n2cc3ccc([N+](=O)[O-])cc3n2)cc1"
-5.1

I'd like to know its inhibition. The compound in question is "O=c1c2c(nc3cc(-c4cccc(Cl)c4)[nH]n13)CCCC2"
-9.4

I'd like to know its inhibition. The compound in question is "COc1ccc(C(=O)COC(=O)c2ccc([N+](=O)[O-])s2)cc1OC"
4.2

I'd like to know its inhibition. The compound in question is "COc1ccc(/C=C2/SC(=O)N(CCCCCC(=O)Nc3ccccc3C(=O)O)C2=S)cc1"
-4.2

I'd like to know its inhibition. The compound in question is "O=[N+]([O-])c1ccc2oc(-c3cccc(O)c3)nc2c1"
90.4

I'd like to know its inhibition. The compound in question is "C/C(=N\NC(=O)c1ccc(C)cc1)C1C(=O)c2ccccc2C1=O"
92.6

I'd like to know its inhibition. The compound in question is "O=c1c2ccccc2ncn1/N=C/c1ccccc1"
2.5
